Read-out: Interleukin-6 (IL6), IL6 (gene 3569)
Assay: BSK_CASM3C_IL6: BioMAP Diversity Plus: CASM3C Assay for Interleukin-6 (IL6) Biomarker Activity for (AID 2283040)
Conditions: primary human coronary artery smooth muscle cells; actives raise or lower the signal
Active and inactive are the calls of the source. How the source made its calls: active means hit-call score of the fitted dose curve at least 0.9, where 1 is the maximum; inactive means score below 0.9.
Possible outcomes: active, inactive

>>> class("CC(C)N1C(=O)N(c2ccccc2)CSC1=NC(C)(C)C")
"inactive"
>>> class("C=C(C)CN(CC)c1c([N+](=O)[O-])cc(C(F)(F)F)cc1[N+](=O)[O-]")
"inactive"
>>> class("N#CN=C1SCCN1Cc1ccc(Cl)nc1")
"inactive"
>>> class("CO/N=C(/C1=NOCCO1)c1ccccc1Oc1ncnc(Oc2ccccc2Cl)c1F")
"inactive"
>>> class("CSC(=O)c1c(C(F)F)nc(C(F)(F)F)c(C(=O)SC)c1CC(C)C")
"active"

----------
Test: BSK_3C_Vis: BioMAP Diversity Plus: 3C Assay for Morphology Visualization (AID 2283025);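 further: fitted both ways so gain or loss versus DMSO counts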
Details: primary human endothelial cells (HUVEC)
The source made the active and inactive calls. Rule for the calls: active = hit-call score of the fitted dose curve at least 0.9, where 1 is the maximum; inactive = score below 0.9.
Outcomes: y (active), n (inactive)

>>> class("CC1(C)CCC(=Cc2ccc(Cl)cc2)C1(O)Cn1cncn1 (stereo not given)")
"n"
>>> class("Nc1cnn(-c2ccccc2)c(=O)c1Cl")
"y"
>>> class("COP(=O)(OC)O/C(C)=C/C(=O)N(C)C")
"n"
>>> class("COC(=O)NC(=S)Nc1ccccc1NC(=S)NC(=O)OC")
"n"
>>> class("CC(C)NC(=O)N1CC(=O)N(c2cc(Cl)cc(Cl)c2)C1=O")
"n"
>>> class("N#CN=C1SCCN1Cc1ccc(Cl)nc1")
"n"
>>> class("Nc1c(Cl)c(Cl)nc(C(=O)O)c1Cl")
"n"
>>> class("COc1ccc(-c2ccccc2)cc1NNC(=O)OC(C)C")
"n"
>>> class("CCOP(=O)(OCC)Oc1nc(Cl)c(Cl)cc1Cl")
"y"
>>> class("C=CCOC(=O)C(C)(C)OC(=O)c1cc(-n2c(=O)cc(C(F)(F)F)n(C)c2=O)ccc1Cl")
"n"

----------
Read-out: Interleukin 6 Receptor (IL6R), IL6R (gene 3570)
Assay: LTEA_HepaRG_IL6R: Life Technologies and Expression Analysis (LTEA) Assay for Interleukin 6 Receptor (IL6R) using HepaRG (AID 2283510);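 on AC50: differentiated human HepaRG liver cells in serum-free induction medium; TaqMan qRT-PCR signal normalized to ACTB GAPDH and POLR2A housekeeping genes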
Conditions: mRNA level, 48 h; actives raise or lower the signal
Activity calls are given as the source filed them. How the source made its calls: active means hit-call score of the fitted dose curve at least 0.9, where 1 is the maximum; inactive means score below 0.9.
EXPERIMENTAL ENDPOINT: AC50

>>> result("CN=C=S")
"inactive"
>>> result("COc1cc(Cl)c(OC)cc1Cl")
"inactive"
>>> result("N#Cc1c[nH]cc1-c1cccc2c1OC(F)(F)O2")
"19.6 µM (active)"
>>> result("CCNP(=S)(OC)O/C(C)=C/C(=O)OC(C)C (stereo unspecified)")
"inactive"
>>> result("CCOP(=S)(OCC)Oc1nc(Cl)n(C(C)C)n1")
"12.2 µM (active)"
>>> result("OC(c1ccc(Cl)cc1)(c1ccc(Cl)cc1)C(Cl)(Cl)Cl")
"inactive"

----------
Test: CCTE_Shafer_MEA_dev_burst_duration_mean: CCTE's Neural Network Formation Assay for Mean Burst Duration, Shafer Lab (AID 2284045)
Active and inactive are the calls of the source. How the source made its calls: active means hit-call score of the fitted dose curve at least 0.9, where 1 is the maximum; inactive means score below 0.9.
Outcomes: 1 (yes) = active, 0 (no) = inactive

>>> class("CS(=O)(=O)c1cc(C(F)(F)F)ccc1C(=O)c1cnoc1C1CC1")
"0 (no)"
>>> class("CCN(CC)c1nc(C)cc(OP(=S)(OC)OC)n1")
"0 (no)"
>>> class("CC(C)=CC1C(C(=O)OCc2coc(Cc3ccccc3)c2)C1(C)C (stereo not given)")
"0 (no)"
>>> class("O=C1C2CC=CCC2C(=O)N1SC(Cl)(Cl)Cl (stereo not given)")
"0 (no)"
>>> class("CS(=O)(=O)c1ccc(C(=O)C2C(=O)CCCC2=O)c([N+](=O)[O-])c1")
"0 (no)"
>>> class("CCOC(=O)C(C)OC(=O)c1cc(Oc2ccc(C(F)(F)F)cc2Cl)ccc1[N+](=O)[O-] (stereo not given)")
"0 (no)"
>>> class("CCOP(=O)(OCC)Oc1nc(Cl)c(Cl)cc1Cl")
"0 (no)"
>>> class("N#CN=C1SCCN1Cc1ccc(Cl)nc1")
"0 (no)"
>>> class("C=C(C)CN(CC)c1c([N+](=O)[O-])cc(C(F)(F)F)cc1[N+](=O)[O-]")
"0 (no)"
>>> class("CCCN(CC)CC1COC2(CCC(C(C)(C)C)CC2)O1 (stereo not given)")
"1 (yes)"

----------
Test: CCTE_Shafer_MEA_acute_network_burst_percentage: CCTE's Neural Acute Assay for Percentage of Network Bursts, Shafer Lab (AID 2284022);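 further: curves fitted for loss so actives lower network burst percentage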
The source made the active and inactive calls. The calls were made as follows: active = hit-call score of the fitted dose curve at least 0.9, where 1 is the maximum; inactive = score below 0.9.
Outcomes: active, inactive

>>> class("CNC(=O)Oc1cccc2ccccc12")
"inactive"
>>> class("CC1(C)C(C(=O)OC(C#N)c2cccc(Oc3ccccc3)c2)C1(C)C (stereo not drawn)")
"active"
>>> class("Cc1nc(N(C)C)nc(OC(=O)N(C)C)c1C")
"inactive"

----------
Experiment: APR_HepG2_P-H2AX_24hr: Apredica 24-hour HepG2 Assay for H2AX Phosphorylation (AID 2282920)
Details: high-content imaging, actives raise or lower the signal
Activity calls are given as the source filed them. The calls were made as follows: active = hit-call score of the fitted dose curve at least 0.9, where 1 is the maximum; inactive = score below 0.9.
EXPERIMENTAL ENDPOINT: outcome

>>> result("CCSC(=O)N1CCCCCC1")
"inactive"
>>> result("CC(C)Nc1nc(Cl)nc(NC(C)C)n1")
"inactive"
>>> result("CCNP(=S)(OC)O/C(C)=C/C(=O)OC(C)C (stereo not drawn)")
"inactive"

----------
Molecular target: human CYP2C9, CYP2C9 (gene 1559) (UniProt P11712)
Sequence (P11712 whole entry, looked up): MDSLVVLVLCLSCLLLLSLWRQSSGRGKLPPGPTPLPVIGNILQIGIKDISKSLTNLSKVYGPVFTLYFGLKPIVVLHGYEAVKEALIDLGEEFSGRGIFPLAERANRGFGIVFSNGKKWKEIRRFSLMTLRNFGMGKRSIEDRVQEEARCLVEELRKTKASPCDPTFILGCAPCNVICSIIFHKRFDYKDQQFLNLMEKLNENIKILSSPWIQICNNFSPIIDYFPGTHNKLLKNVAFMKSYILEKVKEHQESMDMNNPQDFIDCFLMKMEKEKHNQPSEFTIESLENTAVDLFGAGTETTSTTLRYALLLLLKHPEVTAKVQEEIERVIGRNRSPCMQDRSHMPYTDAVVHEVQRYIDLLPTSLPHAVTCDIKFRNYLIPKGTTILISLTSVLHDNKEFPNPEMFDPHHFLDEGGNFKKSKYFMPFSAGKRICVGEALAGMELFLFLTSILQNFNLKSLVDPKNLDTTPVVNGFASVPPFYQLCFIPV
Test: NVS_ADME_hCYP2C9: NovaScreen (NVS) CYP450-related Enzyme Activity (ADME) Assay for human CYP2C9 (AID 2283108)
Results filed as inconclusive are left out. Calls of active or inactive are those of the source. The calls were made as follows: active = hit-call score of the fitted dose curve at least 0.9, where 1 is the maximum; inconclusive = response in the unintended direction; inactive = score below 0.9.
Outcome codes: T = active, F = inactive

>>> class("CCNP(=S)(OC)O/C(C)=C/C(=O)OC(C)C (stereo not drawn)")
"T"
>>> class("CC(C)C1(C)N=C(c2ncccc2C(=O)O)NC1=O (stereo not drawn)")
"F"
>>> class("CCN(CC)c1nc(C)cc(OP(=S)(OC)OC)n1")
"T"
>>> class("CCCCOCN(C(=O)CCl)c1c(CC)cccc1CC")
"T"
>>> class("CCCN(CC)CC1COC2(CCC(C(C)(C)C)CC2)O1 (stereo not drawn)")
"F"
>>> class("CC(C)Oc1cccc(NC(=O)c2ccccc2C(F)(F)F)c1")
"T"
>>> class("CC(C)=CC1C(C(=O)OCc2coc(Cc3ccccc3)c2)C1(C)C (stereo not drawn)")
"T"
>>> class("COc1ccc(-c2ccccc2)cc1NNC(=O)OC(C)C")
"T"

----------
Molecular target: Peroxisome proliferator-activated receptor gamma (Homo sapiens)
Assay: ATG_PPARg_TRANS: Attagene TRANS-FACTORIAL HepG2 Assay for human Peroxisome Proliferator-activated Receptor-gamma (PPARg) (AID 2283007)
Records with an inconclusive call do not appear. Active and inactive are the calls of the source. How the source made its calls: active means hit-call score of the fitted dose curve at least 0.9, where 1 is the maximum; inconclusive means response in the unintended direction; inactive means score below 0.9.
EXPERIMENTAL ENDPOINT: AC50

>>> result("Nc1cnn(-c2ccccc2)c(=O)c1Cl")
"22.4 µM (active)"
>>> result("COC(=O)NC(=S)Nc1ccccc1NC(=S)NC(=O)OC")
"inactive"
>>> result("CCSC(=O)N1CCCCCC1")
"inactive"
>>> result("COc1ccc(-c2ccccc2)cc1NNC(=O)OC(C)C")
"50 µM (active)"
>>> result("CC1(C)C(C=C(Cl)Cl)C1C(=O)OC(C#N)c1cccc(Oc2ccccc2)c1 (stereo not given)")
"17.9 µM (active)"
>>> result("CS(=O)(=O)c1ccc(C(=O)C2C(=O)CCCC2=O)c([N+](=O)[O-])c1")
"inactive"
>>> result("C=CCOC(=O)C(C)(C)OC(=O)c1cc(-n2c(=O)cc(C(F)(F)F)n(C)c2=O)ccc1Cl")
"inactive"
>>> result("COC(=O)c1c(C(F)F)nc(C(F)(F)F)c(C2=NCCS2)c1CC(C)C")
"45.5 µM (active)"
>>> result("Cc1cc(C)nc(Nc2ccccc2)n1")
"inactive"
>>> result("CC(C)N1C(=O)c2ccccc2NS1(=O)=O")
"inactive"

----------
Assay: APR_HepG2_CellCycleArrest_72hr: Apredica 72-hour HepG2 Assay for Cell Cycle Arrest (AID 2282914)
Conditions: high-content imaging, actives raise or lower the signal
Experimental: APR_HepG2_72hr is a cell-based, multiplexed-readout assay that uses HepG2, a human liver cell line, with measurements taken at 72 hours after chemical dosing in a 384-well plate.APR_HepG2_CellCycleArrest_72hr is one of 10 assay component(s) measured or calculated from the APR_HepG2_72hr assay. […] This assay endpoint, APR_HepG2_CellCycleArrest_72hr, was analyzed with bidirectional fitting relative to DMSO as the negative control and baseline of activity. […]
The source made the active and inactive calls. The calls were made as follows: active = hit-call score of the fitted dose curve at least 0.9, where 1 is the maximum; inactive = score below 0.9.
Outcomes: active, inactive

>>> class("N#Cc1c[nH]cc1-c1cccc2c1OC(F)(F)O2")
"active"
>>> class("COCc1cnc(C2=NC(C)(C(C)C)C(=O)N2)c(C(=O)O)c1 (stereo unspecified)")
"inactive"
>>> class("CS(=O)(=O)c1cc(C(F)(F)F)ccc1C(=O)c1cnoc1C1CC1")
"inactive"
>>> class("CS(=O)(=O)c1ccc(C(=O)C2C(=O)CCCC2=O)c([N+](=O)[O-])c1")
"inactive"
>>> class("O=P(O)(O)CCCl")
"inactive"
>>> class("CNC(=O)N(C)c1nnc(C(C)(C)C)s1")
"inactive"
